Molecular target: Serine/threonine-protein kinase PLK1 (Homo sapiens)
Test: qHTS for Inhibitors of PLK1-PDB (polo-like kinase 1 - polo-box domain): Primary Screen; note: nearly all actives have a fitted effect of over 65% in size; for max response, negative = inhibition: series mostly up to about 57 µM; % is set by controls: 0 for no effect and ±100 for the full control effect
Conditions: Plk1 PBD binding of FITC phosphopeptide, fluorescence polarization
Screen size: about 360,000 compounds; about 10,000 (2.8%) were called active. About 4% were inconclusive and are not listed. Shown is part of a subset that was picked to be rich in actives.
Give measured max response, negative = inhibition for each item. Keep answers brief.
Could you give me the number in %? Just the number is fine.

*Q* Entry `CCCCNC(=O)C[C@@H]1C[C@@]2(C(=O)OC)CC(C)(C)CC=C2N(Cc2ccco2)C1=O` has what max response, negative = inhibition?
*A* 0.813

*Q* Entry `CC(C)[C@H](NC(=O)c1ccccc1F)C(=O)Nc1cccc(S(=O)(=O)N2CCOCC2)c1` has what max response, negative = inhibition?
*A* 2.03

*Q* Entry `CCOc1cc(/C=C2\C(=N)N3N=C(C)SC3=NC2=O)ccc1OCCOc1ccccc1` has what max response, negative = inhibition?
*A* -10.7

*Q* Entry `CCCCc1c(-c2ccc(Cl)cc2)ncn1CCc1ccccc1OC` has what max response, negative = inhibition?
*A* 5.05

*Q* Entry `c1ccc(C(=NNc2nc3ccccc3s2)c2ccccn2)cc1` has what max response, negative = inhibition?
*A* -7.03

*Q* Entry `O=C(C(=O)N1CCC(c2ccccc2)CC1)c1ccccc1` has what max response, negative = inhibition?
*A* 3.91

*Q* Entry `COc1ccc([C@H]2C[C@@H](n3cc(COC(=O)c4ccccc4)nn3)[C@H](O)CN2C(=O)c2cccs2)cc1` has what max response, negative = inhibition?
*A* -9.99

*Q* Entry `CCOC(=O)[C@]12CCC=C1N(Cc1cccc3ccccc13)C(=O)[C@H](CC(=O)NCc1cccc(C(F)(F)F)c1)C2` has what max response, negative = inhibition?
*A* -6.42

*Q* Entry `O=c1[nH]c2ccccc2n1C1CCN(CCOc2ccccc2)CC1` has what max response, negative = inhibition?
*A* 0.342

*Q* Entry `COc1cc(/C=C2/C(=O)NN(c3ccc(F)cc3)C2=O)cc([N+](=O)[O-])c1O` has what max response, negative = inhibition?
*A* -17.7

*Q* Entry `CC(C)(C)OC(=O)N1CCN(C(=O)c2[nH]c(C(F)(F)F)nc2-c2ccccc2)CC1` has what max response, negative = inhibition?
*A* 1.58

*Q* Entry `COC(=O)[C@@]12C[C@@H](CC(=O)NCCCCc3ccccc3)C(=O)N(Cc3ccccc3)C1=CCC(C)(C)C2` has what max response, negative = inhibition?
*A* -7.29

*Q* Entry `O=C(Nc1ccc(Cl)cc1)c1csc([C@H]2C[C@H](O)[C@@H](CO)O2)n1` has what max response, negative = inhibition?
*A* -10.3

*Q* Entry `Brc1ccc2nc(-c3ccccc3)c(Cc3ccccc3)n2c1` has what max response, negative = inhibition?
*A* -6.3

*Q* Entry `O=C(/C=C/[C@H]1O[C@@H](n2ccc(=O)[nH]c2=O)[C@H](O)[C@@H]1O)NCc1ccccn1` has what max response, negative = inhibition?
*A* 0.76

*Q* Entry CC1(C(=O)NS(=O)(=O)C2CC2)CCCN(C(=O)CSc2ccccc2)C1 (stereo not drawn) has what max response, negative = inhibition?
*A* -7.19

*Q* Entry `CCN(CC)CCn1c2c(c(SCC(=O)Nc3nc4ccccc4s3)nc1=O)CCCC2` has what max response, negative = inhibition?
*A* -2.27

*Q* Entry `COc1cc(C=O)ccc1Oc1nnnn1-c1ccccc1` has what max response, negative = inhibition?
*A* -3.25

----------
Give measured max response, negative = inhibition for each item. Keep answers brief.
Molecular target: Serine/threonine-protein kinase PLK1 (Homo sapiens) (UniProt P53350)
Sequence (P53350 whole entry, looked up, the tested form may be a part): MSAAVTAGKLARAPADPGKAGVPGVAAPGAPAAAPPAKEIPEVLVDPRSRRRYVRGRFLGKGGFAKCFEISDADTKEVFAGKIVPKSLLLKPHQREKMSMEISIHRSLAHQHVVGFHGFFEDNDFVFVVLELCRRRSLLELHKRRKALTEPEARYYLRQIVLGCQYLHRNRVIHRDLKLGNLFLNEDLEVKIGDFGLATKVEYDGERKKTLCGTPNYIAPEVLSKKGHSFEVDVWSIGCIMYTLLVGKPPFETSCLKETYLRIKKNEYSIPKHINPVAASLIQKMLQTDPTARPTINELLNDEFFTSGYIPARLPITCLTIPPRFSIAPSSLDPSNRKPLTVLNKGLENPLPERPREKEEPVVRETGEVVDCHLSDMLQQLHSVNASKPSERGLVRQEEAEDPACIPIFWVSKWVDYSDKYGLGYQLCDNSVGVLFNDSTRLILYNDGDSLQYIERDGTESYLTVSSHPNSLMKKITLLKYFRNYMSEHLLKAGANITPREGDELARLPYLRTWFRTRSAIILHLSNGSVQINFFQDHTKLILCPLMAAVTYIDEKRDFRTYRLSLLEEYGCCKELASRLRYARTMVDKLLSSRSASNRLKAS
Test: qHTS for Inhibitors of PLK1-PDB (polo-like kinase 1 - polo-box domain): Primary Screen; note: nearly all actives have a fitted effect of over 65% in size; for max response, negative = inhibition: series mostly up to about 57 µM; % is set by controls: 0 for no effect and ±100 for the full control effect
Conditions: Plk1 PBD binding of FITC phosphopeptide, fluorescence polarization
The whole screen tested about 360,000 compounds, of which about 10,000 (2.8%) were called active. Not shown: some 4% with an inconclusive outcome. Many of the other results were omitted from the sample, so actives are more common in it than they were.
Could you give me the number in %? Just the number is fine.

*Q* Entry CC1(C(=O)NS(=O)(=O)c2cccc(F)c2)CCN1C(=O)Cc1ccc(Cl)cc1Cl (stereo not given) has what max response, negative = inhibition?
*A* 1.99

*Q* Entry `Cc1ccc(CNC(=O)Nc2nnc([C@H]3C[C@H](O)[C@@H](CO)O3)s2)cc1` has what max response, negative = inhibition?
*A* 6.99

*Q* Entry `CCOC(=O)c1c(NC(=S)SC)sc(C(=O)N2CCc3ccccc3C2)c1C` has what max response, negative = inhibition?
*A* -5.18

*Q* Entry `COc1cccc(/C=C2\SC(=S)N(CCCC(=O)N3CCOCC3)C2=O)c1` has what max response, negative = inhibition?
*A* -2.08

*Q* Entry COc1ccc(C=C2CCC3C(CCCC34OCCO4)C2=O)cc1 (stereo not given) has what max response, negative = inhibition?
*A* -14.1

----------
Give measured max response, negative = inhibition for each item. Keep answers brief.
Biological target: Serine/threonine-protein kinase PLK1 (Homo sapiens) (UniProt P53350)
Test: qHTS for Inhibitors of PLK1-PDB (polo-like kinase 1 - polo-box domain): Primary Screen; note: nearly all actives have a fitted effect of over 65% in size; for max response, negative = inhibition: series mostly up to about 57 µM; % is set by controls: 0 for no effect and ±100 for the full control effect
Details: Plk1 PBD binding of FITC phosphopeptide, fluorescence polarization
About 10,000 (2.8%) of roughly 360,000 compounds were called active. Another 4% or so got no clear call; they are omitted. Only a selection was taken, and actives are over-represented in it overall.
Could you give me the number in %? Just the number is fine.

*Q* Entry COc1ccc(CNC(=O)COC(=O)C(CCSC)N2C(=O)c3ccccc3C2=O)cc1 (stereo not given) has what max response, negative = inhibition?
*A* -13.1

*Q* Entry `COc1ccc(S(=O)(=O)N(C)C)cc1NC(=O)COC(=O)c1n[nH]c2ccccc12` has what max response, negative = inhibition?
*A* -0.239

*Q* Entry `COc1ccc(CCNC(=O)COC(=O)c2cc(=O)c3ccccc3o2)cc1` has what max response, negative = inhibition?
*A* -2.93

*Q* Entry `COc1cc(/C=C/C(=O)Nc2ccc(OC)c(S(=O)(=O)N3CCOCC3)c2)ccc1OCC#N` has what max response, negative = inhibition?
*A* -0.928

*Q* Entry `CC(C)Nc1nc(NCCOc2ccccc2Cl)c2sccc2n1` has what max response, negative = inhibition?
*A* 4.77

*Q* Entry `Cc1ccc(C(=O)OCC(=O)NCc2ccc3c(c2)OCO3)s1` has what max response, negative = inhibition?
*A* -7.48

*Q* Entry `CC(=O)c1cccc(-c2cnc3c(NC=O)cc(-c4ccc(N(C)C)cc4)cn23)c1` has what max response, negative = inhibition?
*A* -10.2

*Q* Entry `O=C(COC(=O)c1cncc(Br)c1)Nc1ccc(S(=O)(=O)N2CCOCC2)cc1` has what max response, negative = inhibition?
*A* -5.27

*Q* Entry `CN(C)S(=O)(=O)c1ccc2oc(SCC(=O)Nc3ccccc3F)nc2c1` has what max response, negative = inhibition?
*A* -21.2

*Q* Entry CCCc1nc2ccccc2n1C(C)C(=O)NC(C)(C)C (stereo not given) has what max response, negative = inhibition?
*A* -5.55

----------
Target: Serine/threonine-protein kinase PLK1 (Homo sapiens)
Test: qHTS for Inhibitors of PLK1-PDB (polo-like kinase 1 - polo-box domain): Primary Screen; note: nearly all actives have a fitted effect of over 65% in size; note: potency is the fitted concentration of half-maximal effect
Conditions: Plk1 PBD binding of FITC phosphopeptide, fluorescence polarization
Source text: The polo-like kinase 1 (Plk1) is a member of a conserved subfamily of serine / threonine protein kinases that plays a pivotal roles in cell proliferation. It has a C-terminal non-catalytic region called the polo-box domain (PBD) that plays a crucial role in the subcellular localization of the Plk1. […] This project employed a fluorescence polarization (FP) assay using a FITC-conjugated phospho-9-mer (p-9-mer) peptide and purified human Plk1 PBD protein. […]
The whole screen tested about 360,000 compounds, of which about 10,000 (2.8%) were called active. Roughly 4% stayed inconclusive and do not appear here. This excerpt belongs to a sample that is enriched for actives.
quantity: Potency

*Q* Entry `COc1ccc(NC(=O)CSc2ncnc3[nH]ncc23)cc1` has what Potency?
*A* 3.77 µM (active)

*Q* Entry `Cc1cc(C)c(S(=O)(=O)N2CCOCC2)cc1C` has what Potency?
*A* 10.6 µM (active)

*Q* Entry `CS(=O)(=O)c1ccc(Cl)c(NC(=O)Nc2ccccc2)c1` has what Potency?
*A* 23.8 µM (active)

*Q* Entry CC1=NN(C(=O)Cc2ccc(C)cc2)C(O)(c2cccnc2)C1 (stereo unspecified) has what Potency?
*A* 23.8 µM (active)

*Q* Entry `COc1ccc(N2CCN(C(=S)Nc3ccc(S(N)(=O)=O)cc3)CC2)cc1` has what Potency?
*A* 13.4 µM (active)

*Q* Entry `O=C(Nc1ccccc1)c1nnsc1S(=O)(=O)c1ccc(Cl)cc1` has what Potency?
*A* 4.74 µM (active)

*Q* Entry `Cc1ccccc1NC(=O)CSC(=O)c1ccccc1` has what Potency?
*A* 10.6 µM (active)

*Q* Entry `COc1cc(/C=N/Nc2ccc(C)cc2)cc(Br)c1O` has what Potency?
*A* 29.9 µM (active)

*Q* Entry N#CC1=C(N)Oc2[nH]c(=S)[nH]c(=O)c2C12C(=O)Nc1ccccc12 (stereo unspecified) has what Potency?
*A* 2.67 µM (active)

*Q* Entry C=C1c2c(Cl)ccc(O)c2C(O)=C2C(=O)[C@]3(O)C(O)=C(C(N)=O)C(=O)[C@@H](N(C)C)[C@@H]3[C@@H](O)C12 (stereo partly specified) has what Potency?
*A* 23.8 µM (active)

*Q* Entry `Cc1ccc(C(=O)NCC(=O)NCc2cc(=O)n(C)c(=O)n2C)cc1` has what Potency?
*A* 26.7 µM (active)
